Test: chemical genetic growth profiling, strain panel (AID 1159580);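 note: tested at 20 µM; growth read once vehicle control cultures reached saturation at 30 °C; 1 = growth at the plate median or of vehicle wells; lower values mean less growth of the strain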
Conditions: S. cerevisiae deletion strains, growth OD, locus YJL187C, strain SWE1, active compounds read low
Out of some 5,500 compounds screened, about 2,000 (36%) were called active. Roughly 18% stayed inconclusive and do not appear here. The list shows a part of the results.
Please go through the items and note down their normalized growth.
Numbers only.

Examples with answers:
molecule	normalized growth
Cc1nn(-c2ccccc2)nc1C(=O)NNC(=S)Nc1ccc(Cl)cc1	0.954
CN1C(=O)CCS(=O)(=O)C1c1ccc(Cl)cc1 (stereo unspecified)	0.994
CC1(C)C=Cc2cc3ccc(=O)oc3cc2O1	0.968
O=c1[nH]cnc2c1ncn2C1O[C@H](CO)[C@@H](O)[C@H]1O (stereo partly specified)	0.991

For every item in the list below, what is its measured normalized growth?
1. CC(=O)[C@@]1(O)CCC2C3CCC4=CC(=O)CC[C@]4(C)C3CC[C@@]21C (stereo partly specified)
2. CC(=O)Oc1ccccc1C(=O)O
3. CC(C)(C)c1ccc(CSc2nc(N)cc(=O)[nH]2)cc1
4. COc1cc(/C=C/C(=O)N2CCC=CC2=O)cc(OC)c1OC

## Output
[0.997, 0.987, 0.985, 0.996]

Hey, can you go through the list below and give me normalized growth for every item?
1. NC[C@H]1O[C@H](O[C@H]2C(O[C@@H]3O[C@H](CO)[C@@H](O)[C@H]3O)[C@@H](O)[C@H](N)C[C@@H]2N)[C@H](N)[C@@H](O)[C@@H]1O (stereo partly specified)
2. CN1CCN(CCCN2c3ccccc3Sc3ccc(C(F)(F)F)cc32)CC1
3. CC(=O)[O][Hg][c]1ccccc1

## Output
1. 0.997
2. 0.0715
3. 0.0566
